Tested on: Yap1 mRNA
Assay: Antisense inhibition of human Yap1 in A-431 cells by cEt gapmers, single dose (Example 1, RTS4814)
Type: cell-based
Settings: A-431 cells, 5,000 cells per well, free uptake, 2,000 nM modified oligonucleotide, approx. 48 hours, RTS4814, normalized to RIBOGREEN; Table 3
Strand notation (5' to 3'): a small letter for the sugar, then the base; units joined by * are phosphorothioate-linked, units joined directly phosphodiester-linked; [ ] holds rarer units or linkages, { } end groups; capitals alone tell only the bases. k = constrained ethyl (cEt); [5mC] = 5-methylcytosine; d = 2'-deoxy (DNA)
Recorded YAP1 (% UTC) values for a group of substances are listed next.
Report the figure in % UTC without appending any unit label.

Solved entries (count: 2):
[[record]]
substance = "715486 (antisense kT*kA*k[5mC]*dT*dT*d[5mC]*dA*dT*dA*dG*d[5mC]*dT*dT*kA*kT*kA) [Compound 715486]"
target_or_test_system = "Yap1 mRNA"
parameter_measured = "YAP1 (% UTC)"
unit_abbrev = "% UTC"
assay_result = 27

[[record]]
substance = "715591 (k[5mC]*kT*kT*dT*dG*dG*d[5mC]*dA*dG*dA*dG*dA*dT*kA*kA*kA; antisense) [Compound 715591]"
target_or_test_system = "Yap1 mRNA"
parameter_measured = "YAP1 (% UTC)"
unit_abbrev = "% UTC"
assay_result = 41


Next item in the queue.
Prompt: State its YAP1 (% UTC) on Yap1 mRNA: 715432 (k[5mC]*kT*k[5mC]*d[5mC]*dA*dT*d[5mC]*d[5mC]*dT*dG*dA*dG*dT*k[5mC]*kA*kT; antisense) [Compound 715432]
Response: 65
